- Method: qHTS Assay for Lipid Storage Modulators (AID 1519)
- Protocol conditions: Drosophila S3 cells, BODIPY lipid droplet/cell ratio, laser cytometry; measured here: lipid channel max response; cells loaded with oleic acid
Inconclusive results are not listed.
Decision: max response beneath 20% gives MET; max response meeting or exceeding 20% gives NOT MET.

{"Molecule": "O=C(O)COC(=O)Cc1ccccc1Nc1c(Cl)cccc1Cl", "Category label": "MET"}
{"Molecule": "Cc1cc(NC(=O)C2=C(O)c3ccccc3S(=O)(=O)N2C)no1", "Category label": "MET"}
{"Molecule": "CN/C(=C\\[N+](=O)[O-])NCCSCc1csc(CN(C)C)n1", "Category label": "MET"}
{"Molecule": "CC(=O)Nc1cccc(O)c1", "Category label": "NOT MET"}
{"Molecule": "Cc1cc(O)cc(C)c1Cl", "Category label": "MET"}
{"Molecule": "C1CCN2C[C@@H]3C[C@@H](CN4CCCC[C@@H]34)[C@H]2C1", "Category label": "MET"}
{"Molecule": "Cc1onc(-c2ccccc2)c1-c1ccc(S(N)(=O)=O)cc1", "Category label": "NOT MET"}
{"Molecule": "CCOC(=O)[C@H](CCc1ccccc1)N[C@@H](C)C(=O)N1CCC[C@H]1C(=O)O", "Category label": "MET"}
{"Molecule": "C/C=C/C(=O)N(CC)c1ccccc1C", "Category label": "MET"}
{"Molecule": "CC(=O)Nc1ccccc1", "Category label": "MET"}
{"Molecule": "CC(=O)N[C@@H](CC(C)C)C(=O)O", "Category label": "MET"}
{"Molecule": "CC1CC(OC(=O)c2ccccc2O)CC(C)(C)C1 (stereo unspecified)", "Category label": "MET"}
{"Molecule": "CC(=O)SC[C@@H](Cc1ccccc1)C(=O)NCC(=O)OCc1ccccc1", "Category label": "MET"}
{"Molecule": "COc1ccccc1OCC(O)CO (stereo unspecified)", "Category label": "MET"}
{"Molecule": "CCCCOC(=O)c1ccc(N)cc1", "Category label": "MET"}
{"Molecule": "NC(=O)NC1NC(=O)NC1=O (stereo unspecified)", "Category label": "MET"}
{"Molecule": "CNCc1ccccc1", "Category label": "NOT MET"}
{"Molecule": "CC[N+](C)(CC)CCOC(=O)C1c2ccccc2Oc2ccccc21", "Category label": "MET"}
{"Molecule": "CC1CCc2cc(F)cc3c(=O)c(C(=O)O)cn1c23 (stereo unspecified)", "Category label": "NOT MET"}
{"Molecule": "C[n+]1ccccc1/C=N/O", "Category label": "NOT MET"}
{"Molecule": "O=c1[nH]cnc2nc[nH]c12", "Category label": "MET"}
{"Molecule": "CC(=O)Oc1cccc(O)c1", "Category label": "MET"}
{"Molecule": "CCN(CC)C(=O)c1cccc(C)c1", "Category label": "NOT MET"}
{"Molecule": "Nc1ccc(S(=O)(=O)c2ccc(N)cc2)cc1", "Category label": "MET"}
{"Molecule": "C[C@@H]1CCC[C@H](C)N1", "Category label": "MET"}
{"Molecule": "CCOC(N)=O", "Category label": "NOT MET"}
{"Molecule": "CCN(CC)CCc1nc(-c2ccccc2)no1", "Category label": "MET"}
{"Molecule": "C[N+](C)(C)CC[N+]1(C)Cc2c(Cl)c(Cl)c(Cl)c(Cl)c2C1", "Category label": "MET"}
{"Molecule": "CC[N+](CC)(CC(=O)Nc1c(C)cccc1C)Cc1ccccc1", "Category label": "MET"}
{"Molecule": "CC(C)=CCC/C(C)=C/CO", "Category label": "NOT MET"}
{"Molecule": "O=C(O)c1cc(=O)c2ccccc2o1", "Category label": "NOT MET"}
